Please provide measured IC50 for the entries that follow.
system-name: AFF4-CCNT1 interaction (GST-CCNT1 AA 1-300 and biotin-AFF4 peptide AA 32-67) (Homo sapiens)
Construct: Recombinant GST-CCNT1 (1-300), which was purified by Glutathione Superflow Agarose from Rosetta cells; VCPBIO (peptide synthesis) Addgene P#432; host or cells: Rosetta cells
protocol-summary: AlphaLISA assay of the AFF4-CCNT1 interaction (Alpha Screen)
Type: binding
Give your result in µM as a bare value.

O=C(CC(=O)c1ccc(F)cc1)C(=O)Nc1cccc(Cl)c1 has a reported IC50 of 11.4

COc1cccc(C(=O)CC(=O)C(=O)Nc2cc(C(=O)O)ccc2C)c1 has a reported IC50 of 15.2

COc1cccc(C(=O)CC(=O)C(=O)Nc2ccc(Cl)c(Cl)c2)c1 has a reported IC50 of 12.8

O=C(CC(=O)c1ccc(F)cc1)C(=O)Nc1cncc(F)c1 has a reported IC50 of 7.42

COc1cccc(C(=O)CC(=O)C(=O)Nc2cccc(OC)c2C)c1 has a reported IC50 of 15.7

COc1cccc(C(=O)CC(=O)C(=O)Nc2cccc(Cl)c2)c1 has a reported IC50 of 14.4

COc1cccc(C(=O)CC(=O)C(=O)Nc2ccc(F)c(F)c2)c1 has a reported IC50 of 17.4

COc1cccc(NC(=O)C(=O)CC(=O)c2ccc(F)cc2)c1C has a reported IC50 of 21.3

O=C(CC(=O)c1ccc(F)cc1)C(=O)Nc1nn[nH]n1 has a reported IC50 of 9.88

COc1cccc(C(=O)CC(=O)C(=O)Nc2cncnc2C)c1 has a reported IC50 of 17.9

COc1cc(NC(=O)C(=O)CC(=O)c2cccc(OC)c2)cc(OC)c1 has a reported IC50 of 14.3

Cc1ccc(Cl)cc1NC(=O)[C@@H](O)CC(=O)c1ccc(F)cc1 has a reported IC50 of 30.6

---

system-name: AFF4-CCNT1 interaction (GST-CCNT1 AA 1-300 and biotin-AFF4 peptide AA 32-67) (Homo sapiens, UniProt O60563)
Construct: Recombinant GST-CCNT1 (1-300), which was purified by Glutathione Superflow Agarose from Rosetta cells; VCPBIO (peptide synthesis) Addgene P#432; host or cells: Rosetta cells
Sequence (O60563 1-300): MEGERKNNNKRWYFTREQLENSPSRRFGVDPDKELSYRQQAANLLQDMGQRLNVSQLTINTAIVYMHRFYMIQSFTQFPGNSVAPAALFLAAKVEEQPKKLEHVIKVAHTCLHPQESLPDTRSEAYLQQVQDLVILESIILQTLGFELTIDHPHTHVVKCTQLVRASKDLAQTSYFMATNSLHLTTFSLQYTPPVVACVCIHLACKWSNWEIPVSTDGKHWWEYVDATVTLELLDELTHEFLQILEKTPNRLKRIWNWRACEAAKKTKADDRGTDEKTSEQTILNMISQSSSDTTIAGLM
protocol-summary: AlphaLISA assay of the AFF4-CCNT1 interaction (Alpha Screen)
Format: binding
reported-property: IC50

Cc1nc(NC(=O)C(=O)CC(=O)c2ccc(F)cc2)no1 has a reported IC50 of ≥ 60 µM

O=C(CC(=O)c1ccc(F)cc1)C(=O)NC1CCCC1 has a reported IC50 of ≥ 60 µM

O=C(CC(=O)c1ccc(F)cc1)C(=O)NCc1ccccc1 has a reported IC50 of ≥ 30 µM
